protocol details: Plasma pharmacokinetic study in rats after oral and intravenous administration of SZ–A or purified DNJ
Format: in vivo, rat
condition summary: Sprague-Dawley, iv; rat plasma, purified DNJ 1.5 mg/kg i.v., n = 5; read-out: MRT0–∞
measure: MRT inf (min)

| compound | quantity unit | result number |
| --- | --- | --- |
| OC[C@H]1NC[C@H](O)[C@@H](O)[C@@H]1O [DNJ, 1-deoxynojirimycin] | min | 30 |

* * *

protocol details: Plasma pharmacokinetic study in rats after oral and intravenous administration of SZ–A or purified DNJ
Type: in vivo, rat
condition summary: Sprague-Dawley, po; rat plasma, purified DNJ 15 mg/kg p.o., n = 5

| molecule | Tmax (min) |
| --- | --- |
| OC[C@H]1NC[C@H](O)[C@@H](O)[C@@H]1O [DNJ, 1-deoxynojirimycin] | 40.2 |

* * *

protocol details: Plasma pharmacokinetic study in rats after oral and intravenous administration of SZ–A or purified DNJ
Assay type: in vivo, rat
condition summary: Sprague-Dawley, iv; rat plasma, purified DNJ 1.5 mg/kg i.v., n = 5
measure: Tmax (min)

| compound structure string | measure | result number |
| --- | --- | --- |
| OC[C@H]1NC[C@H](O)[C@@H](O)[C@@H]1O | Tmax | 1.8 |

* * *

Let's look at some compounds and their measured half-life.
protocol details: Plasma pharmacokinetic study in rats after oral and intravenous administration of SZ–A or purified DNJ
Type: in vivo, rat
condition summary: Sprague-Dawley, po; rat plasma, SZ–A 200 mg/kg p.o., n = 5

| compound | half-life, h |
| --- | --- |
| OC[C@H]1NC[C@H](O)[C@@H](O)[C@@H]1O [DNJ, 1-deoxynojirimycin] | 2.11 |
| OC[C@H]1NCC[C@@H](O)[C@@H]1O [FGM, fagomine] | 1.44 |
| OC[C@H]1NC[C@@H](O)[C@@H]1O [DAB, 1,4-dideoxy-1,4-imino-D-arabinitol] | 1.38 |

* * *

protocol details: Plasma pharmacokinetic study in rats after oral and intravenous administration of SZ–A or purified DNJ
Assay type: in vivo, rat
condition summary: Sprague-Dawley, iv; rat plasma, purified DNJ 1.5 mg/kg i.v., n = 5; read-out: MRT0–t
measure: MRT last (min)

| compound structure string | measure | result number |
| --- | --- | --- |
| OC[C@H]1NC[C@H](O)[C@@H](O)[C@@H]1O | MRT last | 28.8 |

* * *

protocol details: Plasma pharmacokinetic study in rats after oral and intravenous administration of SZ–A or purified DNJ
Format: in vivo, rat
condition summary: Sprague-Dawley, po; rat plasma, purified DNJ 15 mg/kg p.o., n = 5
measure: Cmax (ng/mL)

| compound | quantity unit | result number |
| --- | --- | --- |
| OC[C@H]1NC[C@H](O)[C@@H](O)[C@@H]1O [DNJ, 1-deoxynojirimycin] | ng/mL | 4860 |

* * *

protocol details: Plasma pharmacokinetic study in rats after oral and intravenous administration of SZ–A or purified DNJ
Format: in vivo, rat
condition summary: Sprague-Dawley, po; rat plasma, purified DNJ 15 mg/kg p.o., n = 5

| compound structure string | half-life (min) |
| --- | --- |
| OC[C@H]1NC[C@H](O)[C@@H](O)[C@@H]1O | 52.8 |

* * *

protocol details: Plasma pharmacokinetic study in rats after oral and intravenous administration of SZ–A or purified DNJ
Format: in vivo, rat
condition summary: Sprague-Dawley, po; rat plasma, SZ–A 200 mg/kg p.o., n = 5

| molecule | AUC(0-inf) [ng·h/mL] |
| --- | --- |
| OC[C@H]1NC[C@H](O)[C@@H](O)[C@@H]1O [DNJ, 1-deoxynojirimycin] | 27000 |
| OC[C@H]1NC[C@@H](O)[C@@H]1O [DAB, 1,4-dideoxy-1,4-imino-D-arabinitol] | 3560 |
| OC[C@H]1NCC[C@@H](O)[C@@H]1O [FGM, fagomine] | 5400 |
